- Experimental System: EGFR (Homo sapiens, UniProt P00533)
- Construct: Add 7 ug A431 cell lysate per well (EGFR source); endogenous in cells; host or cells: A431
- Sequence (P00533 25-1210): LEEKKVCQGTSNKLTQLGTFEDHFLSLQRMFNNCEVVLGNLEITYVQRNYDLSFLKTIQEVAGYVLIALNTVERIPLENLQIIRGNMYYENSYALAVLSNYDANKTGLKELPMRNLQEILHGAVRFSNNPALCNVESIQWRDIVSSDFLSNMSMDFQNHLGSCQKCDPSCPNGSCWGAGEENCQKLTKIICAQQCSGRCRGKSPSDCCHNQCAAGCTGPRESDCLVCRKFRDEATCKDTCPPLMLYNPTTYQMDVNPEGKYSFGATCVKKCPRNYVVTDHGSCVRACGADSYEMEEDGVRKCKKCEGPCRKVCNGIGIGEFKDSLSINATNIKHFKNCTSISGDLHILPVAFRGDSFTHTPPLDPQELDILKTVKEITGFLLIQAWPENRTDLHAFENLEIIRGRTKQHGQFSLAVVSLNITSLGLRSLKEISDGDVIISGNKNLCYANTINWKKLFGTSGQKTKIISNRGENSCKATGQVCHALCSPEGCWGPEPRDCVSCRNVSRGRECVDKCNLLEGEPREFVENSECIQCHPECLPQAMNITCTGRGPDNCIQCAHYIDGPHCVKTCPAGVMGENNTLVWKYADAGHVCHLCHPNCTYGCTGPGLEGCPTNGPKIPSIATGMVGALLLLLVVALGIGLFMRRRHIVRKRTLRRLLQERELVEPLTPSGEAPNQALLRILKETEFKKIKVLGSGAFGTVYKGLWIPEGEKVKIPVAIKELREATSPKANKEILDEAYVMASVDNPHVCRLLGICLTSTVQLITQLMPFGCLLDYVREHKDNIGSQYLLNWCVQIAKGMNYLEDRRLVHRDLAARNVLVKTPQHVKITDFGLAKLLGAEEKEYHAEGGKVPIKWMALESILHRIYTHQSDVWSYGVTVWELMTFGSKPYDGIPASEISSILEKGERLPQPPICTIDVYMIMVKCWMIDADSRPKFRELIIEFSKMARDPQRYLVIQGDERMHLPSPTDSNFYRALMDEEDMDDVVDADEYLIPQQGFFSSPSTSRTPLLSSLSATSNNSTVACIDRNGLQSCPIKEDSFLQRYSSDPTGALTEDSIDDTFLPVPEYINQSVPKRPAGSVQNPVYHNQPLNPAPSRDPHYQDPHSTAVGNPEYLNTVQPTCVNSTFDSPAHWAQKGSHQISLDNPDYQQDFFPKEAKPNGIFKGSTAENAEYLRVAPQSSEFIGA
- Procedure Text: EGFR ELISA assay (in vitro kinase activity, EGFR captured from A431 cell lysate)
- Assay type: biochemical
- Set-up: concentration or dose not given beside the values
// reported Biochem EGFR %Inhibition per item
Answer format: numeric, % implied, no suffix.

What measured Biochem EGFR %Inhibition goes with O=C1Nc2ccc(CCCl)cc2C1=Cc1ccc(N2CCOCC2)cc1 ?
-13.7

GET /values?readout=Biochem EGFR %Inhibition&item= O=C1Nc2ccc(S(=O)(=O)N3CCOCC3)cc2C1=Cc1cc2c([nH]1)CCCC2
20.5

Request the reported Biochem EGFR %Inhibition associated with CNS(=O)(=O)c1ccc2c(c1)C(=Cc1ccc(O)c([N+](=O)[O-])c1)C(=O)N2
2.5

For the compound shown here, Cc1cc(C=C2C(=O)Nc3ccc(S(=O)(=O)Nc4ccc(C(F)(F)F)cc4)cc32)sc1C , give the reported Biochem EGFR %Inhibition.
48.5

Item under review: CC(C)(C)c1ccc(C=C2C(=O)Nc3c(Br)cc(Br)cc32)cc1 . Reported Biochem EGFR %Inhibition?
27.8

Item COc1c(C)cc(C=C2C(=O)Nc3ccc(S(=O)(=O)N4CCOCC4)cc32)cc1C has what recorded Biochem EGFR %Inhibition?
17.8

Bench note: what Biochem EGFR %Inhibition did COC1CC(C=C2C(=O)Nc3ccc(S(=O)(=O)N4CCOCC4)cc32)C(OC)O1 (stereo not drawn) show?
6.2

Which value of Biochem EGFR %Inhibition has been reported for CNS(=O)(=O)c1ccc2c(c1)C(=Cc1ccc(F)cc1)C(=O)N2 in the records?
-2.8

Quick one: Biochem EGFR %Inhibition for COc1cc(OC)c(OC)cc1C=C1C(=O)Nc2ccc(Br)c(C)c21 ?
-12.1
